Test system: AU565 (Breast Carcinoma)
Test: Bliss excess, mean over the matrix (fraction); higher = more synergy
Would you mind telling me the reported Bliss excess of each entry?

Take a look at these entries with their results.
COc1nnc2ccc(N3CCC(c4ccc(OCCN5CCN(C)C(=O)[C@H]5C)cc4)CC3)nn12 [AZD5153] + Cc1c2c(nn1C)CSCc1cc(n(C)n1)CSc1cc(c3ccccc3c1)OCCCc1c(C(=O)O)n(C)c3c-2c(Cl)ccc13 [AZD5991] (first compound max 1 µM, 7x7, partner max 1 µM) :: -0.0342
NC1(C(=O)N[C@@H](CCO)c2ccc(Cl)cc2)CCN(c2ncnc3[nH]ccc23)CC1 [Capivasertib] + CC(C)n1c(=O)n(C)c2cnc3cc(F)c(-c4ccc(OCCCN5CCCCC5)nc4)cc3c21 [AZD1390] (first compound max 10 µM, 7x7, partner max 0.3 µM) :: -0.025

Quick batch: Bliss excess for everything below.
1. CC(=O)c1c(C)c2cnc(Nc3ccc(N4CCNCC4)cn3)nc2n(C2CCCC2)c1=O [Palbociclib] + Cc1c2c(nn1C)CSCc1cc(n(C)n1)CSc1cc(c3ccccc3c1)OCCCc1c(C(=O)O)n(C)c3c-2c(Cl)ccc13 [AZD5991] (first compound max 10 µM, 7x7, partner max 1 µM)
2. COc1nnc2ccc(N3CCC(c4ccc(OCCN5CCN(C)C(=O)[C@H]5C)cc4)CC3)nn12 [AZD5153] + CC1(C)CCC(CN2CCN(c3ccc(C(=O)NS(=O)(=O)c4ccc(NCC5CCOCC5)c([N+](=O)[O-])c4)c(Oc4cnc5[nH]ccc5c4)c3)CC2)=C(c2ccc(Cl)cc2)C1 [Venetoclax] (first compound max 1 µM, 7x7, partner max 1 µM)

1. -0.0211
2. 0.0002

* * *

System: CESS (Acute Myeloid Leukemia)
Assay: Bliss excess, mean over the matrix (fraction); higher = more synergy
measure: Bliss excess
Numbers only.

Some entries whose results are on file:
COc1nnc2ccc(N3CCC(c4ccc(OCCN5CCN(C)C(=O)[C@H]5C)cc4)CC3)nn12 [AZD5153] + C[C@@H]1COCCN1C2=NC(=NC(=C2)C3(CC3)[S@](=N)(=O)C)C4=C5C=CNC5=NC=C4 [AZD6738] (first compound max 1 µM, 7x7, partner max 10 µM) :: -0.0554
CC1(C)CCC(CN2CCN(c3ccc(C(=O)NS(=O)(=O)c4ccc(NCC5CCOCC5)c([N+](=O)[O-])c4)c(Oc4cnc5[nH]ccc5c4)c3)CC2)=C(c2ccc(Cl)cc2)C1 [Venetoclax] + CN(C)CCCOc1ccc(-c2ccc3ncc4c(c3c2)n(C2CCOCC2)c(=O)n4C)cn1 [AZD0156] (first compound max 1 µM, 7x7, partner max 1 µM) :: -0.0638
COc1cccc(OCCCN)c1-c1cc(Nc2cnc(C#N)cn2)n[nH]1 [Prexasertib] + CCc1c2c(nc3ccc(O)cc13)-c1cc3c(c(=O)n1C2)COC(=O)[C@]3(O)CC [SN-38] (first compound max 1 µM, 7x7, partner max 0.3 µM) :: -0.0364

Provide Bliss excess for all items below, preserving their order.
1. CS(=O)(=O)CCNCc1ccc(-c2ccc3ncnc(Nc4ccc(OCc5cccc(F)c5)c(Cl)c4)c3c2)o1 [Lapatinib] + C[C@@H](Oc1cc(-c2cnn(C3CCNCC3)c2)cnc1N)c1c(Cl)ccc(F)c1Cl [Crizotinib] (first compound max 10 µM, 7x7, partner max 10 µM)
2. CN(C)CCCOc1ccc(-c2ccc3ncc4c(c3c2)n(C2CCOCC2)c(=O)n4C)cn1 [AZD0156] + C[C@@H]1COCCN1C2=NC(=NC(=C2)C3(CC3)[S@](=N)(=O)C)C4=C5C=CNC5=NC=C4 [AZD6738] (first compound max 1 µM, 7x7, partner max 10 µM)
3. Cc1c2c(nn1C)CSCc1cc(n(C)n1)CSc1cc(c3ccccc3c1)OCCCc1c(C(=O)O)n(C)c3c-2c(Cl)ccc13 [AZD5991] + C=CCn1c(=O)c2cnc(Nc3ccc(N4CCN(C)CC4)cc3)nc2n1-c1cccc(C(C)(C)O)n1 [AZD1775] (first compound max 1 µM, partner max 1 µM)
4. COc1nnc2ccc(N3CCC(c4ccc(OCCN5CCN(C)C(=O)[C@H]5C)cc4)CC3)nn12 [AZD5153] + Cn1cnc2c(F)c(Nc3ccc(Br)cc3Cl)c(C(=O)NOCCO)cc21 [Selumetinib] (first compound max 1 µM, 7x7, partner max 10 µM)

1. -0.0826
2. 0.0386
3. -0.0098
4. -0.0651

* * *

System: HCC70 (Breast Carcinoma)
Assay: Bliss excess, mean over the matrix (fraction); higher = more synergy
measure: Bliss excess
One number for each entry.

Cn1cnc2c(F)c(Nc3ccc(Br)cc3Cl)c(C(=O)NOCCO)cc21 [Selumetinib] + CC(C)n1c(=O)n(C)c2cnc3cc(F)c(-c4ccc(OCCCN5CCCCC5)nc4)cc3c21 [AZD1390] (first compound max 10 µM, 7x7, partner max 0.3 µM) :: 0.0225

Now, please, on to the next compound.
Tell us which Bliss excess value is on record for COc1cccc(OCCCN)c1-c1cc(Nc2cnc(C#N)cn2)n[nH]1 [Prexasertib] + Cc1cc2ncnn2cc1Nc1ncc2c(n1)n(C1CCOCC1)c(=O)n2C [AZD7648] (first compound max 1 µM, 7x7, partner max 10 µM)
-0.0053

* * *

Tested on: G-402 (Other Solid Carcinomas)
Test: combination Emax (second highest fraction inhibited in the dose matrix, 72 h); higher = more inhibition; extreme values may be limits of the assay
Record form. Attribute: combination Emax. Fill in for each entry.
Answers are plain numbers.

Sample records with combination Emax:
Cc1c2c(nn1C)CSCc1cc(n(C)n1)CSc1cc(c3ccccc3c1)OCCCc1c(C(=O)O)n(C)c3c-2c(Cl)ccc13 [AZD5991] + CN(C)CCCOc1ccc(-c2ccc3ncc4c(c3c2)n(C2CCOCC2)c(=O)n4C)cn1 [AZD0156] (first compound max 1 µM, 7x7, partner max 1 µM) :: 0.965
CN(C)CCCOc1ccc(-c2ccc3ncc4c(c3c2)n(C2CCOCC2)c(=O)n4C)cn1 [AZD0156] + CCN(CCO)CCCOc1ccc2c(Nc3cc(CC(=O)Nc4cccc(F)c4)[nH]n3)ncnc2c1 [AZD2811] (first compound max 1 µM, 7x7, partner max 1 µM) :: 0.532

We now examine a further compound.
Give combination Emax for the following compound: Cc1c2c(nn1C)CSCc1cc(n(C)n1)CSc1cc(c3ccccc3c1)OCCCc1c(C(=O)O)n(C)c3c-2c(Cl)ccc13 [AZD5991] + CC1(C)CCC(CN2CCN(c3ccc(C(=O)NS(=O)(=O)c4ccc(NCC5CCOCC5)c([N+](=O)[O-])c4)c(Oc4cnc5[nH]ccc5c4)c3)CC2)=C(c2ccc(Cl)cc2)C1 [Venetoclax] (first compound max 1 µM, 7x7, partner max 1 µM)
0.926

* * *

Tested on: A253 (Head and Neck Carcinoma)
Assay: Bliss excess, mean over the matrix (fraction); higher = more synergy
measure: Bliss excess
One number for each entry.

COc1cc2c(cc1OCCCCCOc1cc3c(cc1OC)C(=O)N1C=C(C)C[C@H]1C=N3)N=C[C@@H]1CC(C)=CN1C2=O [SG3199] + O=C(c1cc(Cc2n[nH]c(=O)c3ccccc23)ccc1F)N1CCN(C(=O)C2CC2)CC1 [Olaparib] (first compound max 0.001 µM, 7x7, partner max 10 µM) :: -0.0426
COc1cccc(OCCCN)c1-c1cc(Nc2cnc(C#N)cn2)n[nH]1 [Prexasertib] + C[C@@H]1COCCN1C2=NC(=NC(=C2)C3(CC3)[S@](=N)(=O)C)C4=C5C=CNC5=NC=C4 [AZD6738] (first compound max 1 µM, 7x7, partner max 10 µM) :: -0.0334

Turning now to a further record.
State its Bliss excess for this compound: Cc1c2c(nn1C)CSCc1cc(n(C)n1)CSc1cc(c3ccccc3c1)OCCCc1c(C(=O)O)n(C)c3c-2c(Cl)ccc13 [AZD5991] + CC1(C)CCC(CN2CCN(c3ccc(C(=O)NS(=O)(=O)c4ccc(NCC5CCOCC5)c([N+](=O)[O-])c4)c(Oc4cnc5[nH]ccc5c4)c3)CC2)=C(c2ccc(Cl)cc2)C1 [Venetoclax] (first compound max 1 µM, 7x7, partner max 1 µM)
0.0088

* * *

Tested on: A2780 (Ovarian Carcinoma)
Assay: Bliss excess, mean over the matrix (fraction); higher = more synergy
measure: Bliss excess
One number for each entry.

Example entries begin here.
COc1cc2c(cc1OCCCCCOc1cc3c(cc1OC)C(=O)N1C=C(C)C[C@H]1C=N3)N=C[C@@H]1CC(C)=CN1C2=O [SG3199] + O=C(c1cc(Cc2n[nH]c(=O)c3ccccc23)ccc1F)N1CCN(C(=O)C2CC2)CC1 [Olaparib] (first compound max 0.001 µM, 7x7, partner max 10 µM) :: -0.0404
C[C@@H](c1ccc2nccn2c1)n1nnc2ncc(-c3cnn(C)c3)nc21 [Savolitinib] + Cc1c2c(nn1C)CSCc1cc(n(C)n1)CSc1cc(c3ccccc3c1)OCCCc1c(C(=O)O)n(C)c3c-2c(Cl)ccc13 [AZD5991] (first compound max 1 µM, 7x7, partner max 1 µM) :: -0.074
COc1cccc(OCCCN)c1-c1cc(Nc2cnc(C#N)cn2)n[nH]1 [Prexasertib] + CCc1c2c(nc3ccc(O)cc13)-c1cc3c(c(=O)n1C2)COC(=O)[C@]3(O)CC [SN-38] (first compound max 1 µM, 7x7, partner max 0.3 µM) :: -0.0528
COc1cccc(OCCCN)c1-c1cc(Nc2cnc(C#N)cn2)n[nH]1 [Prexasertib] + O=C(c1cc(Cc2n[nH]c(=O)c3ccccc23)ccc1F)N1CCN(C(=O)C2CC2)CC1 [Olaparib] (first compound max 1 µM, 7x7, partner max 10 µM) :: -0.0298

State its Bliss excess: CN(CCO)CC[C@H](CSc1ccccc1)Nc1ccc(S(=O)(=O)NC(=O)c2ccc(N3CCC([C@@H](O)c4ccccc4-c4ccc(Cl)cc4)CC3)cc2)cc1S(=O)(=O)C(F)(F)F [AZD4320] + C[C@@H]1COCCN1C2=NC(=NC(=C2)C3(CC3)[S@](=N)(=O)C)C4=C5C=CNC5=NC=C4 [AZD6738] (first compound max 1 µM, 7x7, partner max 10 µM)
-0.0402
